pEC50 reference
- Measured target: T1, cynomolgus (Macaca fascicularis) LIGHT, membrane-bound (cynomolgus (Macaca fascicularis), UniProt E9NVF7 1-240)
- T1 construct: whole, on cells; also called cynomolgus membrane LIGHT; HEK293FF-cynomolgus LIGHT cells
- T1 sequence (E9NVF7 entry or part of it): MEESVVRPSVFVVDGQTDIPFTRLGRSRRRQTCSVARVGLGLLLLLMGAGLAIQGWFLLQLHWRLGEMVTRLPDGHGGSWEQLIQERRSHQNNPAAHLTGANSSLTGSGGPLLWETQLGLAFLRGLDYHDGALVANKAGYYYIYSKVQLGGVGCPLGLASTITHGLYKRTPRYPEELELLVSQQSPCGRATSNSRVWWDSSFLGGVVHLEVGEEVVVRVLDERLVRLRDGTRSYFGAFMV
- Assay procedure: flow cytometry, transiently transfected HEK293FF cells
The meaning of pEC50 here: minus log10 of the concentration in molar units.

[[record]]
binder = "3C10 (antibody, human IgG4, V domains shown, chimeric human IgG4 (S-to-P, L-to-E at 248), human CL; also called Parental 3C10) VH: EVQLQQSGAELVRPGASVTLSCKASDYTFTDSEIHWVKQTPVHGLEWIGEIDPETGGTAYNQKFKGKATLTADKSSSTAYMELRSLTSEDSAVYYCSRETDYFFDYWGQGTTLTVSS VL: DVVMTQTPAIMSASPGEKVTMTCSASSSVSYMYWYQQKPGSSPRLLIYDTSNLASGVPVRFSGSGSGTSYSLTISRMEAEDAATYYCQQWSSYPLTFGAGTKLELK"
result = 7.99


Reported pEC50 ( 2B11 (antibody, human IgG4, V domains shown, chimeric human IgG4 (S-to-P, L-to-E at 248), human CL; also called Parental 2B11) VH: EVQLVESGAELVRPGVSVKISCKGSGYTFTDYAIHWVKQSHAKSLEWIGVISTYYGDASYNQKFKGKATMTVDKSSSTAYMELARLTSEDSAIYYCARSRGEYGNYDAMDYWGQGTSVTVSS VL: DIVLTQSPASLAVSLGQRATISCRASESVDSYGNSFMHWYQQKPGQPPKLLIYRASNLESGIPARFSGSGSRTDFTLTINPVEADDVATYYCQQSNEDPYTFGGGTKLEIK ) = 10.70
